B1: library; a variant is named by its letters at N, in order (parent)
chain: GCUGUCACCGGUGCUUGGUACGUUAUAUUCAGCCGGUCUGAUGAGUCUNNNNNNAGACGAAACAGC

- Variants of: B1
- Protocol description: normalized RNA/DNA level with ligand (relative to sTRSVctl = 100) (log10 (% of sTRSVctl)); HEK293T overexpressing SLC46A1; ligand concentration (+) RNA-Seq: 6 mM; higher = less ribozyme self-cleavage, higher mRNA level
- Protocol conditions: with (6R,S)-folinic acid; ligand present: yes
Assignment: determine reported normalized RNA/DNA level with ligand (log10) for the given variants.
Answer as a number with no unit attached.

Respond only with normalized RNA/DNA level with ligand (log10) recorded for GCUGUCACCGGUGCUUGGUACGUUAUAUUCAGCCGGUCUGAUGAGUCUGAAGUCAGACGAAACAGC [GAAGUC]
2.04

Respond only with normalized RNA/DNA level with ligand (log10) recorded for GCUGUCACCGGUGCUUGGUACGUUAUAUUCAGCCGGUCUGAUGAGUCUCCUAUGAGACGAAACAGC [CCUAUG]
2.06

Respond only with normalized RNA/DNA level with ligand (log10) recorded for GCUGUCACCGGUGCUUGGUACGUUAUAUUCAGCCGGUCUGAUGAGUCUUUCUCAAGACGAAACAGC [UUCUCA]
2.04

Respond only with normalized RNA/DNA level with ligand (log10) recorded for GCUGUCACCGGUGCUUGGUACGUUAUAUUCAGCCGGUCUGAUGAGUCUCACACAAGACGAAACAGC [CACACA]
1.98

Respond only with normalized RNA/DNA level with ligand (log10) recorded for GCUGUCACCGGUGCUUGGUACGUUAUAUUCAGCCGGUCUGAUGAGUCUACGCAUAGACGAAACAGC [ACGCAU]
2.01

Respond only with normalized RNA/DNA level with ligand (log10) recorded for GCUGUCACCGGUGCUUGGUACGUUAUAUUCAGCCGGUCUGAUGAGUCUGGCCUUAGACGAAACAGC [GGCCUU]
2.09

Respond only with normalized RNA/DNA level with ligand (log10) recorded for GCUGUCACCGGUGCUUGGUACGUUAUAUUCAGCCGGUCUGAUGAGUCUGAAGGCAGACGAAACAGC [GAAGGC]
2.01

Respond only with normalized RNA/DNA level with ligand (log10) recorded for GCUGUCACCGGUGCUUGGUACGUUAUAUUCAGCCGGUCUGAUGAGUCUGGGAUCAGACGAAACAGC [GGGAUC]
2.04

Respond only with normalized RNA/DNA level with ligand (log10) recorded for GCUGUCACCGGUGCUUGGUACGUUAUAUUCAGCCGGUCUGAUGAGUCUGAGCCUAGACGAAACAGC [GAGCCU]
2.06

Respond only with normalized RNA/DNA level with ligand (log10) recorded for GCUGUCACCGGUGCUUGGUACGUUAUAUUCAGCCGGUCUGAUGAGUCUUACCUUAGACGAAACAGC [UACCUU]
2.05

Respond only with normalized RNA/DNA level with ligand (log10) recorded for GCUGUCACCGGUGCUUGGUACGUUAUAUUCAGCCGGUCUGAUGAGUCUGCGCGUAGACGAAACAGC [GCGCGU]
2.04

Respond only with normalized RNA/DNA level with ligand (log10) recorded for GCUGUCACCGGUGCUUGGUACGUUAUAUUCAGCCGGUCUGAUGAGUCUUCGCAGAGACGAAACAGC [UCGCAG]
2.01

Respond only with normalized RNA/DNA level with ligand (log10) recorded for GCUGUCACCGGUGCUUGGUACGUUAUAUUCAGCCGGUCUGAUGAGUCUCCGGCCAGACGAAACAGC [CCGGCC]
2.03

Reference source: the supplement of paper PMC6757056
